Recorded values, source ChEMBL document CHEMBL3792300.

Item-by-item account of CC50
- System: MT4
- ASSAY METHOD TEXT: Cytotoxicity against human MT4 cells after 48 hrs by MTS/PES method
- Assay type: cell-based
- EXPERIMENTAL PARAMETERS: mt4, 48 h

Examples with their reported CC50 follow.
> print(dat)
                                smiles.text  target.of.assay   result
1  C=C1CN(S(=O)(=O)c2ccc(C)cc2)CCCN(CC2CCCCC2)CCCN(S(=O)(=O)c2ccc(N)cc2)C1              MT4  10.6 µM
2  C=C1CN(S(=O)(=O)c2ccc(C)cc2)CCCN(Cc2ccccc2)CCCN(S(=O)(=O)c2ccc(N)cc2)C1.Cl              MT4  63.4 µM
3  C=C1CN(S(=O)(=O)c2ccc(C)cc2)CCCN(Cc2ccccc2)CCCN(S(=O)(=O)c2ccc(OC(=S)N(C)C)cc2)C1.Cl              MT4   106 µM

Request: Please provide the recorded CC50 for "C=C1CN(S(=O)(=O)c2ccc(C)cc2)CCCN(Cc2ccccc2)CCCN(S(=O)(=O)c2ccc(OC)cc2OC)C1.Cl" , tested on MT4.
Result: > 150 µM

Request: Please provide the recorded CC50 for "C=C1CN(S(=O)(=O)c2ccc(C)cc2)CCCN(Cc2ccccc2)CCCN(S(=O)(=O)c2ccc(OC(F)(F)F)cc2)C1.Cl" , tested on MT4.
Result: > 150 µM

Request: Please provide the recorded CC50 for "C=C1CN(S(=O)(=O)c2ccc(C)cc2)CCCN(Cc2ccccc2)CCCN(S(=O)(=O)N2CCOCC2)C1.Cl" , tested on MT4.
Result: > 150 µM

Request: Please provide the recorded CC50 for "C=C1CN(S(=O)(=O)c2ccc(C)cc2)CCCN(Cc2ccccc2)CCCN(S(=O)(=O)c2cccc(N)c2)C1.Cl" , tested on MT4.
Result: > 150 µM

Request: Please provide the recorded CC50 for "C=C1CN(S(=O)(=O)c2ccc(C)cc2)CCCN(Cc2ccccc2)CCCN(S(=O)(=O)c2ccc3c(c2)OCO3)C1.Cl" , tested on MT4.
Result: > 150 µM

Request: Please provide the recorded CC50 for "C=C1CN(S(=O)(=O)c2ccc(C)cc2)CCCN(Cc2ccccc2)CCCN(S(=O)(=O)c2ccc(OC)cc2)C1.Cl" , tested on MT4.
Result: > 150 µM

---

- System: Human immunodeficiency virus 1
- ASSAY METHOD TEXT: Antiviral activity against CXCR4 using HIV-1 NL4.3 infected in human MT4 cells assessed as reduction of viral replication preincubated for 15 mins with cells followed by viral infection measured after 4 days by MTS/PES method
- Assay type: functional, organism-based
- EXPERIMENTAL PARAMETERS: Human immunodeficiency virus 1, NL4.3, MT4
READOUT KIND: IC50

Request: What value of IC50 has been reported for the following compound? "C=C1CN(C(=O)c2ccc(N)cc2)CCCN(Cc2ccccc2)CCCN(S(=O)(=O)c2ccc(C)cc2)C1"
Result: > 10 µM

Request: What value of IC50 has been reported for the following compound? "C=C1CN(S(=O)(=O)c2ccc(C)cc2)CCCN(Cc2ccccc2)CCCN(S(=O)(=O)c2ccc(F)cc2)C1.Cl"
Result: 4.66 µM

Request: What value of IC50 has been reported for the following compound? "C=C1CN(S(=O)(=O)c2ccc(C)cc2)CCCN(Cc2ccccc2)CCCN(S(=O)(=O)c2ccc3c(c2)OCO3)C1.Cl"
Result: 14.2 µM

Request: What value of IC50 has been reported for the following compound? "C=C1CN(S(=O)(=O)c2ccc(C)cc2)CCCN(CC2CCCCC2)CCCN(S(=O)(=O)c2ccc(OC)cc2)C1"
Result: 0.49 µM

Request: What value of IC50 has been reported for the following compound? "C=C1CN(S(=O)(=O)c2ccc(C)cc2)CCCN(CC2CCCCC2)CCCN(S(=O)(=O)c2ccc(N)cc2)C1"
Result: > 10 µM

Request: What value of IC50 has been reported for the following compound? "C=C1CN(S(=O)(=O)c2ccc(C)cc2)CCCN(Cc2ccccc2)CCCN(S(=O)(=O)c2ccc(OC)cc2OC)C1.Cl"
Result: 7 µM

Request: What value of IC50 has been reported for the following compound? "C=C1CN(C(=O)c2ccc([N+](=O)[O-])cc2)CCCN(Cc2ccccc2)CCCN(S(=O)(=O)c2ccc(C)cc2)C1"
Result: > 50 µM

Request: What value of IC50 has been reported for the following compound? "C=C1CN(S(=O)(=O)c2ccc(C)cc2)CCCN(Cc2ccccc2)CCCN(S(=O)(=O)c2ccc(OC)cc2)C1.Cl"
Result: 0.55 µM

Request: What value of IC50 has been reported for the following compound? "C=C1CN(S(=O)(=O)c2ccc(C)cc2)CCCN(Cc2ccccc2)CCCN(S(=O)(=O)N2CCOCC2)C1.Cl"
Result: 8.99 µM

Request: What value of IC50 has been reported for the following compound? "C=C1CN(S(=O)(=O)c2ccc(C)cc2)CCCN(Cc2ccccc2)CCCN(S(=O)(=O)c2ccc(OC)c(OC)c2)C1.Cl"
Result: 0.86 µM

Request: What value of IC50 has been reported for the following compound? "C=C1CN(S(=O)(=O)c2ccc(C)cc2)CCCN(Cc2ccccc2)CCCN(S(=O)(=O)c2ccc(SC)cc2)C1.Cl"
Result: 1.44 µM

Request: What value of IC50 has been reported for the following compound? "C=C1CN(S(=O)(=O)c2ccc(C)cc2)CCCN(Cc2ccccc2)CCCN(S(=O)(=O)c2ccc(O)cc2)C1.Cl"
Result: 2.84 µM

Request: What value of IC50 has been reported for the following compound? "C=C1CN(S(=O)(=O)c2ccc(C)cc2)CCCN(CC2CCCCC2)CCCN(S(=O)(=O)c2ccc(N3CCOCC3)cc2)C1"
Result: 0.36 µM

Request: What value of IC50 has been reported for the following compound? "C=C1CN(S(=O)(=O)c2ccc(C)cc2)CCCN(CC2CCCCC2)CCCN(S(=O)(=O)c2ccc(OCC)cc2)C1"
Result: 0.62 µM

Request: What value of IC50 has been reported for the following compound? "C=C1CN(S(=O)(=O)c2ccc(C)cc2)CCCN(Cc2ccccc2)CCCN(S(=O)(=O)c2ccc(N(C)C)cc2)C1.Cl"
Result: 0.62 µM

Request: What value of IC50 has been reported for the following compound? "C=C1CN(S(=O)(=O)c2ccc(C)cc2)CCCN(Cc2ccccc2)CCCN(S(=O)(=O)c2ccc(N)cc2)C1.Cl"
Result: 7.72 µM

Request: What value of IC50 has been reported for the following compound? "C=C1CN(S(=O)(=O)c2ccccc2)CCCN(Cc2ccccc2)CCCN(S(=O)(=O)c2ccc(C)cc2)C1.Cl"
Result: > 50 µM

---

- Test system: Human immunodeficiency virus 1
- ASSAY METHOD TEXT: Antiviral activity against CXCR4 using HIV-1 NL4.3 infected in human MT4 cells assessed as reduction of viral replication preincubated for 15 mins with cells followed by viral infection measured after 4 days by MTS/PES method
- Assay type: functional, organism-based
- EXPERIMENTAL PARAMETERS: Human immunodeficiency virus 1, NL4.3, MT4
READOUT KIND: IC50 (µM)
Quick note: give the figure in µM, leave out the unit.

Examples with their reported IC50 follow.
> print(dat)
                                smiles.text  unit.descriptor  numeric.readout
1  C=C1CN(S(=O)(=O)c2ccc(C)cc2)CCCN(Cc2ccccc2)CCCN(S(=O)(=O)N(C)C)C1               µM             12.8
2  C=C1CN(S(=O)(=O)c2ccc(C)cc2)CCCN(Cc2ccccc2)CCCN(S(=O)(=O)c2ccccc2[N+](=O)[O-])C1.Cl               µM             27.7

Request: What value of IC50 has been reported for the following compound? "C=C1CN(S(=O)(=O)c2ccc(C)cc2)CCCN(CC2CCCCC2)CCCN(S(=O)(=O)c2ccc(OCCCC)cc2)C1"
Result: 1.95

Request: What value of IC50 has been reported for the following compound? "C=C1CN(C(=O)c2ccc(OC)cc2)CCCN(Cc2ccccc2)CCCN(S(=O)(=O)c2ccc(C)cc2)C1"
Result: 3.86

Request: What value of IC50 has been reported for the following compound? "C=C1CN(S(=O)(=O)c2ccc(C)cc2)CCCN(CC2CCCCC2)CCCN(S(=O)(=O)c2ccc(N(C)C)cc2)C1"
Result: 0.18

---

- Test system: Human immunodeficiency virus 1
- ASSAY METHOD TEXT: Antiviral activity against CXCR4 using HIV-1 NL4.3 infected in human MT4 cells assessed as reduction of viral replication preincubated for 15 mins with cells followed by viral infection measured after 4 days by MTS/PES method
- Assay type: functional, organism-based
- EXPERIMENTAL PARAMETERS: Human immunodeficiency virus 1, NL4.3, MT4
READOUT KIND: IC50

Examples with their reported IC50 follow.
> print(dat)
                                smiles.text   result
1  C=C1CN(S(=O)(=O)c2ccc(C)cc2)CCCN(Cc2ccccc2)CCCN(S(=O)(=O)c2cccc([N+](=O)[O-])c2)C1.Cl  > 50 µM
2  C=C1CN(S(=O)(=O)c2ccc(C)cc2)CCCN(Cc2ccccc2)CCCN(S(=O)(=O)c2ccn(C)c2)C1.Cl  > 50 µM

Below: the item to evaluate.
Request: What value of IC50 has been reported for the following compound? "C=C1CN(S(=O)(=O)c2ccc(C)cc2)CCCN(Cc2ccccc2)CCCN(S(=O)(=O)c2ccc(OC(=S)N(C)C)cc2)C1.Cl"
Result: > 50 µM
